Value source: ChEMBL document CHEMBL5137093

assay-name: Half life in rat hepatocyte measured upto 120 mins in presence of ABT by UPLC-MS/MS analysis
Type: ADME, cell-based
experimental-context: hepatocytes, with ABT
reported-property: half-life (min)
Field format: number, assumed min, no unit text.

In: What value of half-life has been reported for the following compound? COC(=O)N[C@H](C(=O)N[C@@H](Cc1ccccc1)[C@H](CN(Cc1ccc(-c2ccccn2)cc1)NC(=O)[C@@H](NC(=O)OC)C(C)(C)C)OC(=O)OC(OC(=O)[C@@H](N)C(C)C)C(C)C)C(C)(C)C (stereo in doubt; 3s)
Out: 26

====

Quick list: Ratio per entry.
assay-name: Fold ratio of total AUC of Atazanavir in Sprague-Dawley rat at 3 ml/kg,po measured upto 24 hrs by UPLC-MS/MS analysis
Type: ADME
experimental-context: in vivo

INSERT INTO measurements (compound, recorded_value) VALUES
  ('COC(=O)N[C@H](C(=O)N[C@@H](Cc1ccccc1)[C@H](CN(Cc1ccc(-c2ccccn2)cc1)NC(=O)[C@@H](NC(=O)OC)C(C)(C)C)OC(=O)OC(OC(=O)[C@@H](N)C(C)C)C(C)(C)C)C(C)(C)C (mixture of isomers)', 13.2),
  ('COC(=O)N[C@H](C(=O)N[C@@H](Cc1ccccc1)[C@H](CN(Cc1ccc(-c2ccccn2)cc1)NC(=O)[C@@H](NC(=O)OC)C(C)(C)C)OC(=O)OC(OC(=O)[C@@H](NC(=O)[C@H](N)C(C)C)C(C)C)C(C)C)C(C)(C)C (stereo in doubt; 6h)', 111.7),
  ('COC(=O)N[C@H](C(=O)N[C@@H](Cc1ccccc1)[C@H](CN(Cc1ccc(-c2ccccn2)cc1)NC(=O)[C@@H](NC(=O)OC)C(C)(C)C)OC(=O)OC(OC(=O)[C@@H](NC(=O)[C@@H](N)C(C)C)C(C)C)C(C)C)C(C)(C)C (stereo in doubt; 6e)', 3.3),
  ('COC(=O)N[C@H](C(=O)N[C@@H](Cc1ccccc1)[C@H](CN(Cc1ccc(-c2ccccn2)cc1)NC(=O)[C@@H](NC(=O)OC)C(C)(C)C)OC(=O)OC(OC(=O)[C@H](C)N)C(C)C)C(C)(C)C (stereo in doubt; 3p)', 0.9),
  ('COC(=O)N[C@H](C(=O)N[C@@H](Cc1ccccc1)[C@H](CN(Cc1ccc(-c2ccccn2)cc1)NC(=O)[C@@H](NC(=O)OC)C(C)(C)C)OC(=O)OC(OC(=O)[C@@H](N)C(C)C)C(C)C)C(C)(C)C (stereo in doubt; 3r)', 3.6);

In: Would you kindly share the measured Ratio for COC(=O)N[C@H](C(=O)N[C@@H](Cc1ccccc1)[C@H](CN(Cc1ccc(-c2ccccn2)cc1)NC(=O)[C@@H](NC(=O)OC)C(C)(C)C)OC(=O)OC(OC(=O)[C@@H](N)C(C)C)C1CCCCC1)C(C)(C)C (stereo in doubt; 4n) ?
Out: 5.3

In: Need Ratio of COC(=O)N[C@H](C(=O)N[C@@H](Cc1ccccc1)[C@H](CN(Cc1ccc(-c2ccccn2)cc1)NC(=O)[C@@H](NC(=O)OC)C(C)(C)C)OC(=O)OC(OC(=O)[C@H](C(C)C)N(C)C)C(C)C)C(C)(C)C (stereo in doubt; 5h) , thanks.
Out: 42.1

In: Consider the compound shown here: COC(=O)N[C@H](C(=O)N[C@@H](Cc1ccccc1)[C@H](CN(Cc1ccc(-c2ccccn2)cc1)NC(=O)[C@@H](NC(=O)OC)C(C)(C)C)OC(=O)OC(OC(=O)C[C@H](N)Cc1cc(F)c(F)cc1F)C(C)C)C(C)(C)C (stereo in doubt; 3ac) What is its recorded Ratio?
Out: 27

In: Consider the compound COC(=O)N[C@H](C(=O)N[C@@H](Cc1ccccc1)[C@H](CN(Cc1ccc(-c2ccccn2)cc1)NC(=O)[C@@H](NC(=O)OC)C(C)(C)C)OC(=O)OC(OC(=O)C1(N)CC1)C(C)C)C(C)(C)C (stereo in doubt; 3y) and give its measured Ratio.
Out: 22.2

In: I have this compound here, CN[C@H](C(=O)OC(OC(=O)O[C@@H](CN(Cc1ccc(-c2ccccn2)cc1)NC(=O)[C@@H](NC(=O)OC)C(C)(C)C)[C@H](Cc1ccccc1)NC(=O)[C@@H](NC(=O)OC)C(C)(C)C)C(C)C)C(C)C (stereo in doubt; 5e) , and I need its recorded Ratio.
Out: 6

====

assay-name: AUClast in Sprague-Dawley rat at 1 ml/kg,iv measured upto 24 hrs by UPLC-MS/MS analysis
Type: ADME
Set-up: dose 1 ml/kg, time < 24 hrs, route iv
experimental-context: in vivo
Listing of entries alongside the reported AUC(0-t) at 24 h.
Kindly provide the numeric value in µM·h only, without the unit symbol.

Previously resolved entries follow.
INSERT INTO results (compound, u, recorded_value) VALUES
  ('COC(=O)N[C@H](C(=O)N[C@@H](Cc1ccccc1)[C@H](CN(Cc1ccc(-c2ccccn2)cc1)NC(=O)[C@@H](NC(=O)OC)C(C)(C)C)OC(=O)OC(OC(=O)[C@@H](N)C(C)C)C(C)C)C(C)(C)C (stereo in doubt; 3s)', 'µM·h', 0.17),
  ('COC(=O)N[C@H](C(=O)N[C@@H](Cc1ccccc1)[C@H](CN(Cc1ccc(-c2ccccn2)cc1)NC(=O)[C@@H](NC(=O)OC)C(C)(C)C)OC(=O)OC(OC(=O)[C@@H](NC(=O)[C@H](N)C(C)C)C(C)C)C(C)C)C(C)(C)C (stereo in doubt; 6h)', 'µM·h', 10.5);

# next compound below
In: Which value of AUC(0-t) at 24 h has been reported for COC(=O)N[C@H](C(=O)N[C@@H](Cc1ccccc1)[C@H](CN(Cc1ccc(-c2ccccn2)cc1)NC(=O)[C@@H](NC(=O)OC)C(C)(C)C)OC(=O)OC(OC(=O)[C@H](N)C(C)C)C(C)C)C(C)(C)C (stereo in doubt; 5j) in the records?
Out: 0.356

====

measurement-target: Voltage-gated inwardly rectifying potassium channel KCNH2 (Homo sapiens)
Sequence (Q12809 whole entry): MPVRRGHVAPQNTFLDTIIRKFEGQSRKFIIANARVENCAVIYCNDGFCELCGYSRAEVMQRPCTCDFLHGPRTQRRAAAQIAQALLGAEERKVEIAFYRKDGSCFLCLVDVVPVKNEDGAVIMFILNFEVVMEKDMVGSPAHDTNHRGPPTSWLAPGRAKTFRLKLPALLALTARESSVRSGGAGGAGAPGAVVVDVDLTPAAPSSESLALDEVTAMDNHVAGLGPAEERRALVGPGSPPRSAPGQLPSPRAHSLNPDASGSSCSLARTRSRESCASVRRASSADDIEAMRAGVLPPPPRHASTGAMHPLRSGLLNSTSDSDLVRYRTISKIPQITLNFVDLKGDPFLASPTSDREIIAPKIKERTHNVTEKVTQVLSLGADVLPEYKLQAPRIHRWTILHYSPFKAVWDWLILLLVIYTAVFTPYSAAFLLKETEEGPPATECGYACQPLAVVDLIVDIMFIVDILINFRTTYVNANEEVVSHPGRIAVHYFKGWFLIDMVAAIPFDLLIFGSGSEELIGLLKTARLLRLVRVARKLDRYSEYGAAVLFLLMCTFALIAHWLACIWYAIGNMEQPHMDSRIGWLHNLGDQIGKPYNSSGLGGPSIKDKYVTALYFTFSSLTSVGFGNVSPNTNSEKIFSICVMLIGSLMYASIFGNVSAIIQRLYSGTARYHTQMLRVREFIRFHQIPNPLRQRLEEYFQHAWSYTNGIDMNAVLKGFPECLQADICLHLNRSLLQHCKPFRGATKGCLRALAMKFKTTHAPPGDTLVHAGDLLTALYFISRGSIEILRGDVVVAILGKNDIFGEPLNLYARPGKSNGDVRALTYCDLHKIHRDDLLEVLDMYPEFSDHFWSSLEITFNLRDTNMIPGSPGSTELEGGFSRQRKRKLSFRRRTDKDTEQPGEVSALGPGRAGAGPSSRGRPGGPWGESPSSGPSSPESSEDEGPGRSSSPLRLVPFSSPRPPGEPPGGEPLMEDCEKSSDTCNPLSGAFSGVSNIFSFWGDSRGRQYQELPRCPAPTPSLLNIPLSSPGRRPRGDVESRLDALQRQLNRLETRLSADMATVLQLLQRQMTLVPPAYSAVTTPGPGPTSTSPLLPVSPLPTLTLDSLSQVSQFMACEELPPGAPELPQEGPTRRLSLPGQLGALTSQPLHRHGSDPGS
assay-name: Inhibition of human ERG by patch-clamp assay
reported-property: pIC50
In plain terms, pIC50 is the concentration in mol/L turned into minus its base-10 logarithm.

In: Return pIC50 measured with Voltage-gated inwardly rectifying potassium channel KCNH2 (Homo sapiens) given this compound: COC(=O)N[C@H](C(=O)N[C@@H](Cc1ccccc1)[C@H](CN(Cc1ccc(-c2ccccn2)cc1)NC(=O)[C@@H](NC(=O)OC)C(C)(C)C)OC(=O)OC(OC(=O)[C@H](N)C(C)C)C(C)C)C(C)(C)C (stereo in doubt; 5j)
Out: 5.06

====

compounds and their reported AUClast
assay-name: AUClast in Sprague-Dawley rat at 3 ml/kg,po measured upto 24 hrs by UPLC-MS/MS analysis
Assay type: ADME
Set-up: time < 24 hrs, dose 3 ml/kg, route po
experimental-context: in vivo, 24 h
Enter your answer as a number in nM·h; do not include the unit.

Before answering, review these 10 worked examples.
INSERT INTO assay_data (compound, reported_property, recorded_value) VALUES
  ('COC(=O)N[C@H](C(=O)N[C@@H](Cc1ccccc1)[C@H](CN(Cc1ccc(-c2ccccn2)cc1)NC(=O)[C@@H](NC(=O)OC)C(C)(C)C)OC(=O)OC(OC(=O)[C@H](C(C)C)N(C)C)C(C)C)C(C)(C)C (stereo in doubt; 5h)', 'AUClast', 11628),
  ('COC(=O)N[C@H](C(=O)N[C@@H](Cc1ccccc1)[C@H](CN(Cc1ccc(-c2ccccn2)cc1)NC(=O)[C@@H](NC(=O)OC)C(C)(C)C)OC(=O)OC(OC(=O)[C@@H](N)C(C)C)C1CCCCC1)C(C)(C)C (stereo in doubt; 4n)', 'AUClast', 1454),
  ('CCC(C)C(OC(=O)O[C@@H](CN(Cc1ccc(-c2ccccn2)cc1)NC(=O)[C@@H](NC(=O)OC)C(C)(C)C)[C@H](Cc1ccccc1)NC(=O)[C@@H](NC(=O)OC)C(C)(C)C)OC(=O)[C@@H](N)C(C)C (stereo in doubt; 4k)', 'AUClast', 1658),
  ('COC(=O)N[C@H](C(=O)N[C@@H](Cc1ccccc1)[C@H](CN(Cc1ccc(-c2ccccn2)cc1)NC(=O)[C@@H](NC(=O)OC)C(C)(C)C)OC(=O)OC(OC(=O)[C@H](N)C(C)C)C(C)C)C(C)(C)C (stereo in doubt; 5j)', 'AUClast', 120),
  ('COC(=O)N[C@H](C(=O)N[C@@H](Cc1ccccc1)[C@H](CN(Cc1ccc(-c2ccccn2)cc1)NC(=O)[C@@H](NC(=O)OC)C(C)(C)C)OC(=O)OC(OC(=O)C1(N)CC1)C(C)C)C(C)(C)C (stereo in doubt; 3x)', 'AUClast', 1313),
  ('CN[C@H](C(=O)OC(OC(=O)O[C@@H](CN(Cc1ccc(-c2ccccn2)cc1)NC(=O)[C@@H](NC(=O)OC)C(C)(C)C)[C@H](Cc1ccccc1)NC(=O)[C@@H](NC(=O)OC)C(C)(C)C)C(C)C)C(C)C (stereo in doubt; 5e)', 'AUClast', 262),
  ('COC(=O)N[C@H](C(=O)N[C@@H](Cc1ccccc1)[C@H](CN(Cc1ccc(-c2ccccn2)cc1)NC(=O)[C@@H](NC(=O)OC)C(C)(C)C)OC(=O)OC(OC(=O)[C@@H](N)C(C)C)C(C)(C)C)C(C)(C)C (mixture of isomers)', 'AUClast', 1057),
  ('COC(=O)N[C@H](C(=O)N[C@@H](Cc1ccccc1)[C@H](CN(Cc1ccc(-c2ccccn2)cc1)NC(=O)[C@@H](NC(=O)OC)C(C)(C)C)OC(=O)OC(OC(=O)[C@H](C(C)C)N(C)C)C(C)C)C(C)(C)C (stereo in doubt; 5g)', 'AUClast', 996),
  ('COC(=O)N[C@H](C(=O)N[C@@H](Cc1ccccc1)[C@H](CN(Cc1ccc(-c2ccccn2)cc1)NC(=O)[C@@H](NC(=O)OC)C(C)(C)C)OC(=O)OC(OC(=O)[C@H](N)C(C)C)C(C)C)C(C)(C)C (stereo in doubt; 5i)', 'AUClast', 15),
  ('COC(=O)N[C@H](C(=O)N[C@@H](Cc1ccccc1)[C@H](CN(Cc1ccc(-c2ccccn2)cc1)NC(=O)[C@@H](NC(=O)OC)C(C)(C)C)OC(=O)OC(OC(=O)[C@H](C)N)C(C)C)C(C)(C)C (stereo in doubt; 3q)', 'AUClast', 2129);

In: May I ask what AUClast has been recorded for COC(=O)N[C@H](C(=O)N[C@@H](Cc1ccccc1)[C@H](CN(Cc1ccc(-c2ccccn2)cc1)NC(=O)[C@@H](NC(=O)OC)C(C)(C)C)OC(=O)OC(OC(=O)[C@@H](NC(=O)[C@@H](N)C(C)C)C(C)C)C(C)C)C(C)(C)C (stereo in doubt; 6f) ?
Out: 208

In: Would you mind telling me what AUClast value was observed for COC(=O)N[C@H](C(=O)N[C@@H](Cc1ccccc1)[C@H](CN(Cc1ccc(-c2ccccn2)cc1)NC(=O)[C@@H](NC(=O)OC)C(C)(C)C)OC(=O)OC(OC(=O)C1(N)CC1)C(C)C)C(C)(C)C (stereo in doubt; 3y) ?
Out: 4874

In: Reported AUClast, compound CN[C@H](C(=O)OC(OC(=O)O[C@@H](CN(Cc1ccc(-c2ccccn2)cc1)NC(=O)[C@@H](NC(=O)OC)C(C)(C)C)[C@H](Cc1ccccc1)NC(=O)[C@@H](NC(=O)OC)C(C)(C)C)C(C)C)C(C)C (stereo in doubt; 5f) : ____
Out: 996

In: I am curious: what AUClast value has been reported for COC(=O)N[C@H](C(=O)N[C@@H](Cc1ccccc1)[C@H](CN(Cc1ccc(-c2ccccn2)cc1)NC(=O)[C@@H](NC(=O)OC)C(C)(C)C)OC(=O)OC(OC(=O)[C@@H](NC(=O)[C@@H](N)C(C)C)C(C)C)C(C)C)C(C)(C)C (stereo in doubt; 6e) ?
Out: 0.5

In: Could you tell me which AUClast is on file for COC(=O)N[C@H](C(=O)N[C@@H](Cc1ccccc1)[C@H](CN(Cc1ccc(-c2ccccn2)cc1)NC(=O)[C@@H](NC(=O)OC)C(C)(C)C)OC(=O)OC(OC(=O)[C@@H](N)C(C)C)C1CCCCC1)C(C)(C)C (stereo in doubt; 4o) ?
Out: 406

In: Consider the compound COC(=O)N[C@H](C(=O)N[C@@H](Cc1ccccc1)[C@H](CN(Cc1ccc(-c2ccccn2)cc1)NC(=O)[C@@H](NC(=O)OC)C(C)(C)C)OC(=O)OC(OC(=O)[C@H](C)N)C(C)C)C(C)(C)C (stereo in doubt; 3p) and give its measured AUClast.
Out: 19

In: Look up AUClast: CCC(C)C(OC(=O)O[C@@H](CN(Cc1ccc(-c2ccccn2)cc1)NC(=O)[C@@H](NC(=O)OC)C(C)(C)C)[C@H](Cc1ccccc1)NC(=O)[C@@H](NC(=O)OC)C(C)(C)C)OC(=O)[C@@H](N)C(C)C (mixture of isomers)
Out: 724

In: Given the compound COC(=O)N[C@H](C(=O)N[C@@H](Cc1ccccc1)[C@H](CN(Cc1ccc(-c2ccccn2)cc1)NC(=O)[C@@H](NC(=O)OC)C(C)(C)C)OC(=O)OC(OC(=O)[C@@H](N)C(C)C)C(C)(C)C)C(C)(C)C (stereo in doubt; 4m) , what is its reported AUClast?
Out: 6
